Sourced from patent US20240000075A1

Examples of compounds with documented pest or weed control at 200 ppm follow.
system: Phakopsora pachyrhizi; test: Asian soybean rust, whole-plant fungicidal activity (PHAKPA); type: in vivo; details: 72 h, 3DC (3 day curative), read-out: % Disease Control Rating PHAKPA

pest or weed control at 200 ppm reported for this compound `Cc1cc(C(=O)CC2CCCCC2)c(C)cc1/N=C/N(C)Cc1ccccc1` : < 20%

Query `CCN(C)/C=N/c1cc(C)c(C(=O)Cc2ccc(OC(F)(F)F)cc2)cc1C` yields pest or weed control at 200 ppm of > 85%

Lab note: measured pest or weed control at 200 ppm of `Cc1cc(C(=O)CC2CCCC2)c(C)cc1/N=C/N(C)C` was > 85%

---

tested on: Phakopsora pachyrhizi; assay: Asian soybean rust, whole-plant fungicidal activity (PHAKPA); assay type: in vivo; settings: 72 h, 3DC (3 day curative), read-out: % Disease Control Rating PHAKPA
# pest or weed control at 200 ppm per entry

Illustrative cases are given below, each with its answer.
CCN(C)/C=N/c1cc(C)c(C(=O)Cc2ccc(C(F)(F)F)cc2)cc1C [Compound 63]; > 85%
CCN(C)/C=N/c1ccc(C(=O)CC2CCCC2)cc1 [Compound 97]; 50 to 85%
CCN(C)/C=N/c1cc(OC)c(C(=O)C2CCC2)cc1C [Compound 99]; > 85%

CCc1ccc(CC(=O)c2cc(C)c(/N=C/N(C)CC)cc2C)cc1 [Compound 6] has a reported pest or weed control at 200 ppm of > 85%

The reported value for CCN(C)/C=N/c1cc(C)c(C(=O)Cc2ccccc2C)cc1C [Compound 1] in terms of pest or weed control at 200 ppm is > 85%

Looking up CCN(C)/C=N/c1cc(C)c(C(=O)Cc2cccc(OC(F)F)c2)cc1C [Compound 84] , I found its pest or weed control at 200 ppm recorded as > 85%

---

Listed here are compounds together with their documented pest or weed control at 200 ppm.
test system: Rhynchosporium commune; experiment: Leaf blotch of barley, whole-plant fungicidal activity (RHYNSE); assay type: in vivo; settings: 24 h, 1DP (1 day protectant), read-out: % Disease Control Rating RHYNSE

Here is how some compounds turned out for pest or weed control at 200 ppm.
Cc1cc(C(=O)Cc2c(F)cc(F)cc2F)c(C)cc1/N=C/N(C)C; < 20%
Cc1cc(C(=O)Cc2c(F)cc(F)cc2F)c(C)cc1/N=C1\CCCCN1C; < 20%
CCN(C)/C(C)=N/c1cc(C)c(C(=O)CC2CCCC2)cc1C; 20 to 50%

Now consider the entry below.
Kindly note the recorded pest or weed control at 200 ppm for `CCN(C)/C=N/c1cc(C)c(C(=O)CC2CCC2)cc1C` , which is > 85%

---

Each entry below carries its recorded pest or weed control at 200 ppm.
tested on: Rhynchosporium commune; assay: Leaf blotch of barley, whole-plant fungicidal activity (RHYNSE); format: in vivo; settings: 24 h, 1DP (1 day protectant), read-out: % Disease Control Rating RHYNSE

CCN(C)/C=N/c1cc(C)c(C(=O)Cc2cccc(C(F)(F)F)c2F)cc1C [Compound 36]; 50 to 85%
CCN(C)/C(S)=N/c1cc(C)c(C(=O)CC2CCCC2)cc1C [Compound 94]; > 85%
CCN(C)/C=N/c1cc(C)c(C(=O)Cc2cccc(C(F)(F)F)c2)cc1C [Compound 5]; > 85%

# evaluate next
The measured pest or weed control at 200 ppm associated with CCN(C)/C=N/c1cc(OC)c(C(=O)Cc2c(F)cc(F)cc2F)cc1C [Compound 37] reads < 20%
